Positions of bridges follow the written chain, without caps; N, C: chain ends. Non-standard residues stand in square brackets, D forms with d. Residues, ends and D or L forms follow the SMILES beside them. *: point of attachment. X38 = O=C(c1ccc(Cl)cc1C(F)(F)F)*; X7 = O=C(c1cc(F)cc(C(F)(F)F)c1)*; Octanoyl = CCCCCCCC(=O)*; Orn = NCCC[C@H](N)C(=O)O; Dab = NCC[C@H](N)C(=O)O; Abu = CC[C@H](N)C(=O)O; Dap = NC[C@H](N)C(=O)O
What follows is a collection of Minimum inhibitory concentration, Ec FADDI-EC003 values obtained with Enterobacter cloacae.

Inquiry: For the molecule CCCCCCCC(=O)N[C@@H](CCCN)C(=O)N[C@H](C(=O)N[C@H](CO)C(=O)N[C@H]1CCNC(=O)[C@H]([C@@H](C)O)NC(=O)[C@H](CCN)NC(=O)[C@H](CCN)NC(=O)[C@H]([C@@H](C)O)NC(=O)[C@@H](CC(C)C)NC(=O)[C@H](CCN)NC1=O)[C@@H](C)O [Compound 14] (Octanoyl-[Orn]T[dS][Dab][Dab][dL]T[Dab][Dab]T; lactam 4-C) , give its reported Minimum inhibitory concentration, Ec FADDI-EC003.
Reply text: 0.5 µg/mL

Inquiry: For the molecule CC[C@@H]1NC(=O)[C@@H](CC(C)C)NC(=O)[C@H](CCN)NC(=O)[C@@H](NC(=O)[C@H](CN)NC(=O)[C@@H](NC(=O)[C@H](CCN)NC(=O)c2cc(F)cc(C(F)(F)F)c2)[C@@H](C)O)CCNC(=O)[C@H]([C@@H](C)O)NC(=O)[C@H](CCN)NC(=O)[C@H](CCN)NC1=O [Compound 108] (X7-[Dab]T[Dap][Dab][Dab][dL][Abu][Dab][Dab]T; lactam 4-C) , give its reported Minimum inhibitory concentration, Ec FADDI-EC003.
Reply text: 0.5 µg/mL

Inquiry: For the molecule CC[C@@H]1NC(=O)[C@@H](CC(C)C)NC(=O)[C@H](CCN)NC(=O)[C@@H](NC(=O)[C@H](CN)NC(=O)[C@@H](NC(=O)[C@H](CCN)NC(=O)c2ccc(Cl)cc2C(F)(F)F)[C@@H](C)O)CCNC(=O)[C@H]([C@@H](C)O)NC(=O)[C@H](CCN)NC(=O)[C@H](CCN)NC1=O [Compound 136] (X38-[Dab]T[Dap][Dab][Dab][dL][Abu][Dab][Dab]T; lactam 4-C) , give its reported Minimum inhibitory concentration, Ec FADDI-EC003.
Reply text: <0.125 µg/mL
